- testName: Liver microsome stability test, mouse
- Assay type: in vitro ADME
- conditionNotes: mouse liver microsomes 0.5 mg/ml, compound 1 μM, NADPH 1 mM, within 60 minutes
So basically, if CLint scaled at 1 μM comes in under 200 mL/min/kg it's label 1, and if it's 200 mL/min/kg or more it's label 0.

**Query** Does the reported CLint scaled at 1 μM of the following compound sit strictly below 200 mL/min/kg? "CC(C)c1ccc(N2C[C@H](CS(C)(=O)=O)[C@H]2C)c2cnc(Nc3ccnc(-c4cnn(S(C)(=O)=O)c4)n3)cc12"
**Result** label 1

**Query** Does the reported CLint scaled at 1 μM of the following compound sit strictly below 200 mL/min/kg? "CC(C)c1ccc(N2C[C@H](N(C)S(C)(=O)=O)[C@H]2C)c2cnc(Nc3ccnc(-c4cnn(S(=O)(=O)C5CC5)c4)n3)cc12"
**Result** label 0

**Query** Does the reported CLint scaled at 1 μM of the following compound sit strictly below 200 mL/min/kg? "CC(C)c1ccc(N2CC(CS(C)(=O)=O)C2)c2cnc(Nc3ccnc(-c4cnn(S(=O)(=O)N(C)C)c4)n3)cc12"
**Result** label 1

**Query** Does the reported CLint scaled at 1 μM of the following compound sit strictly below 200 mL/min/kg? COC1CCN(c2nccc(Nc3cc4c(C(C)C)ccc(N5CC(NS(C)(=O)=O)C5)c4cn3)n2)CC1F (stereo not drawn)
**Result** label 0

**Query** Does the reported CLint scaled at 1 μM of the following compound sit strictly below 200 mL/min/kg? CC(C)c1ccc(N2CC(NS(C)(=O)=O)C2)c2cnc(Nc3ccnc(N4CCC(O)C(F)C4)n3)cc12 (stereo not drawn)
**Result** label 0

**Query** Does the reported CLint scaled at 1 μM of the following compound sit strictly below 200 mL/min/kg? CC(C)c1ccc(N2CC(NS(C)(=O)=O)C2)c2cnc(Nc3ccnc(N4CCC(O)C(F)(F)C4)n3)cc12 (stereo not drawn)
**Result** label 0

**Query** Does the reported CLint scaled at 1 μM of the following compound sit strictly below 200 mL/min/kg? "CC(C)c1ccc(N2CC(CS(C)(=O)=O)C2)c2cnc(Nc3ccnc(-c4cnn(S(C)(=O)=O)c4)n3)cc12"
**Result** label 1

**Query** Does the reported CLint scaled at 1 μM of the following compound sit strictly below 200 mL/min/kg? CC(C)c1ccc(N2CC(N(C)S(C)(=O)=O)C2)c2cnc(Nc3ccnc(N4CC[C@@H](O)[C@@H](F)C4)n3)cc12 [Compound P39a]
**Result** label 0

* * *

Task for the reader: assign each of the following compounds its reported IC50.
- targetOfAssay: EGFR (wild-type) (Homo sapiens)
- Sequence (P00533 25-1210): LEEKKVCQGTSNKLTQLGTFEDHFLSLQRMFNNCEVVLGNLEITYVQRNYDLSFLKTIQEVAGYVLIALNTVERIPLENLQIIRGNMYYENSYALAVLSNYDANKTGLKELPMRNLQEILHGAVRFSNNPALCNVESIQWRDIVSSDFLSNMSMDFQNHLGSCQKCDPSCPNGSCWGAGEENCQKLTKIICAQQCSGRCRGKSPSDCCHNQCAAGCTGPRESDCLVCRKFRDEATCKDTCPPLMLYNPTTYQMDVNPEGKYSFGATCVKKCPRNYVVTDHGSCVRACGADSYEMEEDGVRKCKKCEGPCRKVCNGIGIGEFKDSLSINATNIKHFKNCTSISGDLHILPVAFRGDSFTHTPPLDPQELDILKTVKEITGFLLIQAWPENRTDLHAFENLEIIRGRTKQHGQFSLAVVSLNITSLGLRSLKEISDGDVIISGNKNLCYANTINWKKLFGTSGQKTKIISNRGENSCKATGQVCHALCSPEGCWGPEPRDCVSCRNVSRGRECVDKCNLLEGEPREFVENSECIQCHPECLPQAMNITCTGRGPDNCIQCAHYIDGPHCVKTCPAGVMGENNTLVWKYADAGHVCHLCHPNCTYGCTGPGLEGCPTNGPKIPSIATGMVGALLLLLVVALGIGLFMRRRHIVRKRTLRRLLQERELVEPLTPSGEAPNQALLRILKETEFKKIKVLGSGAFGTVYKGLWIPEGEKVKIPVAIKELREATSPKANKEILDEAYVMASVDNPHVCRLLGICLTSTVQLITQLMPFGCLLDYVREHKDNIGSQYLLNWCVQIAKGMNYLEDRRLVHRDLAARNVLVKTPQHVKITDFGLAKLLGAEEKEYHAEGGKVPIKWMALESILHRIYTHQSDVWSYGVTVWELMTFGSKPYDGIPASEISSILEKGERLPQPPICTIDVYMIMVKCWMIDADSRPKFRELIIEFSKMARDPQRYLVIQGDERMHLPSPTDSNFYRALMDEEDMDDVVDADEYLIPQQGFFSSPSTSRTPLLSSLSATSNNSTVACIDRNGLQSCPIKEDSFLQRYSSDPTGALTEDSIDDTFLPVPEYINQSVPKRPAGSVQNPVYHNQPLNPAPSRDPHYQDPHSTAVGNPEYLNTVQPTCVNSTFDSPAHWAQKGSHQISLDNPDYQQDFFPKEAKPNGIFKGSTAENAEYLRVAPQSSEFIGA
- testName: MSA (Mobility Shift Assay) kinase activity, EGFR wild type
- Assay type: biochemical
- conditionNotes: read-out: EGFR wt/ IC50/nM
Numbers only; they are read as nM.

**Query** Which IC50 is reported for this compound? CC(C)c1ccc(N2CC(NS(C)(=O)=O)C2)c2cnc(Nc3ccnc(N4CCC(O)C(F)C4)n3)cc12 (stereo not shown)
**Result** 8.4

**Query** Which IC50 is reported for this compound? "CC(C)c1ccc(N2CC(CS(C)(=O)=O)C2)c2cnc(Nc3ccnc(-c4cnn(S(C)(=O)=O)c4)n3)cc12"
**Result** 2.4

**Query** Which IC50 is reported for this compound? CC(C)c1ccc(N2CC(NS(C)(=O)=O)C2)c2cnc(Nc3ccnc(N4CCC(O)C(C)(F)C4)n3)cc12 (stereo not shown) [Compound P46]
**Result** 41.8

**Query** Which IC50 is reported for this compound? "CC(C)c1ccc(N2CC3(CC(S(C)(=O)=O)C3)C2)c2cnc(Nc3ccnc(-c4cnn(S(=O)(=O)C5CC5)c4)n3)cc12"
**Result** 17.9

**Query** Which IC50 is reported for this compound? CC(C)c1ccc(N2CC(N(C)S(C)(=O)=O)C2)c2cnc(Nc3ccnc(N4CC[C@@H](O)[C@@H](F)C4)n3)cc12 [Compound P39a]
**Result** 9.4

* * *

- targetOfAssay: Ba/F3-TEL-EGFR-L858R-C797S (Homo sapiens, UniProt P00533, C797S/L858R, cells depend on it)
- Construct: fused on or other part: N-terminal TEL (ETV6) oligomerising part fused to the EGFR intracellular/kinase part; P41212 (Transcription factor ETV6)
- Sequence (P00533 whole entry C797S/L858R, the tested form may be a part): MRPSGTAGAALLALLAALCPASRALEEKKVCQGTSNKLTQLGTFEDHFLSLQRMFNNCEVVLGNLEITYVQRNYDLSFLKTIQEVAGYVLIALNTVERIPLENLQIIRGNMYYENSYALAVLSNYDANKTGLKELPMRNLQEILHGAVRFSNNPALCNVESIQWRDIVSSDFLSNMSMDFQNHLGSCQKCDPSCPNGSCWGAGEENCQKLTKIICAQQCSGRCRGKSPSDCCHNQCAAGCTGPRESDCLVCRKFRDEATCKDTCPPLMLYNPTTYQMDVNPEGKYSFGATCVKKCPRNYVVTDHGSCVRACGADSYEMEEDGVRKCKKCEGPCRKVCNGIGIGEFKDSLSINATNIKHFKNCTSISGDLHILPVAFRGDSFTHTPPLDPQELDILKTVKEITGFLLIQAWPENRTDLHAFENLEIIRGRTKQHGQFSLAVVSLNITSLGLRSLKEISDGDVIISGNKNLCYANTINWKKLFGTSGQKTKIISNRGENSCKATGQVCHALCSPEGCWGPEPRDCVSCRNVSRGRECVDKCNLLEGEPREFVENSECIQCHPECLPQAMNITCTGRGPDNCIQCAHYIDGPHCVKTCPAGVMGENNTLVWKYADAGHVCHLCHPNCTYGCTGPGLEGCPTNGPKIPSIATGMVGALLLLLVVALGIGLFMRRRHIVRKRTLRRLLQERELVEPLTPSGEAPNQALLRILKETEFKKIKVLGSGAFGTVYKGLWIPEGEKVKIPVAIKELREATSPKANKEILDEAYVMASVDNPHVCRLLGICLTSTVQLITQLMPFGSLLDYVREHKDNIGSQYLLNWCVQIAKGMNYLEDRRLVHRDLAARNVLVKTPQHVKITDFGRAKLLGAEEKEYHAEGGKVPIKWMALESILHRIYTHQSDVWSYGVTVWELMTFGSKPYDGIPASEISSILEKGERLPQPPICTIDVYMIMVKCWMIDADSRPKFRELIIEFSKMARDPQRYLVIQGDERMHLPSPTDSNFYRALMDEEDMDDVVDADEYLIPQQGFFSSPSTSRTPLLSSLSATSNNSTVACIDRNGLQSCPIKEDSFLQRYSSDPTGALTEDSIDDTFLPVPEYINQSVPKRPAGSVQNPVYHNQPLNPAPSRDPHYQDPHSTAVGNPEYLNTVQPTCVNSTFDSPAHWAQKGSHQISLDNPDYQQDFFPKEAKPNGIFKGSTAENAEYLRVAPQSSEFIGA
- testName: CellTiter-Glo proliferation, Ba/F3-TEL-EGFR-L858R-C797S
- Type: cell-based
- conditionNotes: 72 hours, read-out: Ba/F3-TEL-EGFR-L858R-C797S IC50/nM
outcomeMeasure: GI50 (nM)
Numbers only; they are read as nM.

**Query** Which GI50 is reported for this compound? CO[C@H]1CCN(c2nccc(Nc3cc4c(C(C)C)ccc(N5C[C@H](N(C)S(C)(=O)=O)[C@H]5C)c4cn3)n2)C[C@H]1F [Compound P40b]
**Result** 5.9

**Query** Which GI50 is reported for this compound? CC(=O)NC1CN(c2ccc(C(C)C)c3cc(Nc4ccnc(N5CCC(O)C(F)C5)n4)ncc23)C1 (centres unmarked)
**Result** 1690

**Query** Which GI50 is reported for this compound? COC1CCN(c2nccc(Nc3cc4c(cn3)c(N3CC(CS(C)(=O)=O)C3)cc(=O)n4C(C)C)n2)CC1F (centres unmarked)
**Result** 63

**Query** Which GI50 is reported for this compound? "CC(C)c1ccc(N2C[C@H](CS(C)(=O)=O)[C@H]2C)c2cnc(Nc3ccnc(-c4cnn(S(=O)(=O)C5CC5)c4)n3)cc12"
**Result** 5.8

**Query** Which GI50 is reported for this compound? CC(C)c1ccc(N2CC(NS(C)(=O)=O)C2)c2cnc(Nc3ccnc(N4CCC(C)(O)C(F)C4)n3)cc12 (centres unmarked)
**Result** 28

**Query** Which GI50 is reported for this compound? "CC(C)OCCS(=O)(=O)n1cc(-c2nccc(Nc3cc4c(C(C)C)ccc(N5C[C@H](CS(C)(=O)=O)[C@H]5C)c4cn3)n2)cn1"
**Result** 226

**Query** Which GI50 is reported for this compound? COC1CCN(c2nccc(Nc3cc4c(C(C)C)ccc(N5C[C@H](NS(C)(=O)=O)[C@H]5C)c4cn3)n2)CC1F (some centres unmarked)
**Result** 7

**Query** Which GI50 is reported for this compound? "CC(C)c1ccc(N2CC(CS(C)(=O)=O)C2)c2cnc(Nc3ccnc(-c4cnn(S(=O)(=O)C5COC5)c4)n3)cc12"
**Result** 33

**Query** Which GI50 is reported for this compound? CCS(=O)(=O)NC1CN(c2ccc(C(C)C)c3cc(Nc4ccnc(N5CCC(O)C(F)C5)n4)ncc23)C1 (centres unmarked)
**Result** 38

**Query** Which GI50 is reported for this compound? CC(C)c1ccc(N2CC(NS(C)(=O)=O)C2)c2cnc(Nc3ccnc(N4CCC(O)C(F)C4)n3)cc12 (centres unmarked)
**Result** 38.6

**Query** Which GI50 is reported for this compound? "CCOCCS(=O)(=O)n1cc(-c2nccc(Nc3cc4c(C(C)C)ccc(N5C[C@H](CS(C)(=O)=O)[C@H]5C)c4cn3)n2)cn1"
**Result** 13

**Query** Which GI50 is reported for this compound? "CC(C)c1ccc(N2C[C@H](CS(C)(=O)=O)[C@H]2C)c2cnc(Nc3ccnc(-c4cnn(S(=O)(=O)CCOC5CC5)c4)n3)cc12"
**Result** 55

**Query** Which GI50 is reported for this compound? "CCCS(=O)(=O)C[C@H]1CN(c2ccc(C(C)C)c3cc(Nc4ccnc(-c5cnn(S(=O)(=O)C6CC6)c5)n4)ncc23)[C@@H]1C"
**Result** 28

**Query** Which GI50 is reported for this compound? CCS(=O)(=O)N[C@H]1CN(c2ccc(C(C)C)c3cc(Nc4ccnc(N5CCC(OC)C(F)C5)n4)ncc23)[C@@H]1C (some centres unmarked)
**Result** 10

**Query** Which GI50 is reported for this compound? CO[C@@H]1CCN(c2nccc(Nc3cc4c(C(C)C)ccc(N5C[C@H](N(C)S(C)(=O)=O)[C@H]5C)c4cn3)n2)C[C@@H]1F [Compound P40a]
**Result** 5.8

**Query** Which GI50 is reported for this compound? "CCn1cc(-c2nccc(Nc3cc4c(C(C)C)ccc(N5CC(CS(C)(=O)=O)C5)c4cn3)n2)cn1"
**Result** 21

**Query** Which GI50 is reported for this compound? CC(C)c1ccc(N2CC(NS(C)(=O)=O)C2)c2cnc(Nc3ccnc(N4CCC(O)C(C)(F)C4)n3)cc12 (centres unmarked) [Compound P45]
**Result** 61

**Query** Which GI50 is reported for this compound? "CC(C)c1ccc(N2CC(CS(C)(=O)=O)C2)c2cnc(Nc3ccnc(-c4cnn(S(=O)(=O)C5CCC5)c4)n3)cc12"
**Result** 18

**Query** Which GI50 is reported for this compound? CCCS(=O)(=O)N[C@H]1CN(c2ccc(C(C)C)c3cc(Nc4ccnc(N5CCC(OC)C(F)C5)n4)ncc23)[C@@H]1C (some centres unmarked)
**Result** 16

**Query** Which GI50 is reported for this compound? CC(C)c1ccc(N2CC(NS(=O)(=O)c3ccoc3)C2)c2cnc(Nc3ccnc(N4CCC(O)C(F)C4)n3)cc12 (centres unmarked)
**Result** 115

**Query** Which GI50 is reported for this compound? "CC(C)c1ccc(N2C[C@H](CS(C)(=O)=O)[C@H]2C)c2cnc(Nc3ccnc(-c4cnn(S(C)(=O)=O)c4)n3)cc12"
**Result** 8.9

**Query** Which GI50 is reported for this compound? CC(C)c1ccc(N2C[C@H](N(C)S(C)(=O)=O)[C@H]2C)c2cnc(Nc3ccnc(N4CC[C@@H](O)[C@@H](F)C4)n3)cc12 [Compound P41a]
**Result** 7.1

**Query** Which GI50 is reported for this compound? "CC(C)c1ccc(N2CC(CS(C)(=O)=O)C2)c2cnc(Nc3ccnc(-c4cnn(S(=O)(=O)c5ccccn5)c4)n3)cc12"
**Result** 122

**Query** Which GI50 is reported for this compound? "CC(C)c1ccc(N2CC(CS(C)(=O)=O)C2)c2cnc(Nc3ccnc(-c4cnn(S(C)(=O)=O)c4)n3)cc12"
**Result** 11

**Query** Which GI50 is reported for this compound? CC(C)c1ccc(N2CC(CS(C)(=O)=O)C2)c2cnc(Nc3ccnc(-c4cnn(S(=O)(=O)C5CCOC5)c4)n3)cc12 (centres unmarked)
**Result** 12

**Query** Which GI50 is reported for this compound? COCCS(=O)(=O)n1cc(-c2nccc(Nc3cc4c(C(C)C)ccc(N5CC(CS(C)(=O)=O)C5)c4cn3)n2)cn1 [Compound H20]
**Result** 22
